# TEST_SUMMARY: Pharmacokinetics of SR13668 in monkeys after i.v. and oral gavage dosing
# Format: in vivo, cynomolgus monkeys (macaca fasicularis)
# CONDITION: male, cynomolgus monkey, plasma, po, 7.02 mg/kg, 84.2 mg/m^2 (7.02 mg/kg) oral gavage, Solutol, seventh daily dose, fed
MEASURE: MRT (h)
// return numeric value only (unit: h, not printed)

Look up and state reported MRT for CCOC(=O)c1ccc2[nH]c3c(OC)c4[nH]c5ccc(C(=O)OCC)cc5c4cc3c2c1
12.8

* * *

# TEST_SUMMARY: Pharmacokinetics of SR13668 in dogs after i.v. and oral gavage dosing
# Format: in vivo, beagle dogs
# CONDITION: male, beagle, dog, plasma, po, 4.68 mg/kg, dogs, plasma; 93.6 mg/m^2 (4.68 mg/kg) oral gavage, Solutol, seventh daily dose; fasted; read-out: VZ/F
# Method: Four non-naïve male beagle dogs (approximately 3 years of age; Ridglan Farms Inc. Mt. Horeb, Wis.) and four non-naïve male cynomolgus monkeys [cynos (macaca fasicularis); approximately 7 to 8 years of age; Charles River Laboratories, Inc., Houston, Tex.] were used in this study. […] A freshly prepared SR13668 standard curve was analyzed along with samples on each day of analysis. […]
MEASURE: Vd/F (L/kg)
Give the value in L/kg but do not write L/kg after it.

Give a short answer stating reported Vd/F for CCOC(=O)c1ccc2[nH]c3c(OC)c4[nH]c5ccc(C(=O)OCC)cc5c4cc3c2c1 .
64

* * *

# TEST_SUMMARY: Pharmacokinetics of SR13668 in monkeys after i.v. and oral gavage dosing
# Assay type: in vivo, cynomolgus monkeys (macaca fasicularis)
# CONDITION: male, cynomolgus monkey, whole blood, po, 28.06 mg/kg, whole blood, 336.7 mg/m^2 (28.06 mg/kg) oral gavage, PEG400:Labrasol 1:1 v/v, seventh daily dose, fed
# Protocol: Four non-naïve male beagle dogs (approximately 3 years of age; Ridglan Farms Inc. Mt. Horeb, Wis.) and four non-naïve male cynomolgus monkeys [cynos (macaca fasicularis); approximately 7 to 8 years of age; Charles River Laboratories, Inc., Houston, Tex.] were used in this study. […] A freshly prepared SR13668 standard curve was analyzed along with samples on each day of analysis. […]
MEASURE: AUC(0-inf)
Please state the value followed by its unit.

Item CCOC(=O)c1ccc2[nH]c3c(OC)c4[nH]c5ccc(C(=O)OCC)cc5c4cc3c2c1 : provide AUC(0-inf)
1520 ng·h/mL

* * *

# TEST_SUMMARY: Solubility of SR13668 in various solvents
# Format: physicochemical
# CONDITION: 65 °C, aqueous with cosolvent or surfactant or cyclodextrin, thermodynamic from solid; Solutol; 65-70 ° C.; HPLC
MEASURE: solubility (µg/mL)
Give your result in µg/mL as a bare value.

Using the record for CCOC(=O)c1ccc2[nH]c3c(OC)c4[nH]c5ccc(C(=O)OCC)cc5c4cc3c2c1 [SR13668] , state its measured solubility.
7000

* * *

# TEST_SUMMARY: Solubility of SR13668 in various solvents
# Type: physicochemical
# CONDITION: organic solvent or mixture, thermodynamic from solid; Labrasol; RT; UV
MEASURE: solubility (µg/mL)
Number only, in µg/mL; omit the unit.

Write down solubility measured for item CCOC(=O)c1ccc2[nH]c3c(OC)c4[nH]c5ccc(C(=O)OCC)cc5c4cc3c2c1 [SR13668]
380

* * *

# TEST_SUMMARY: Pharmacokinetics of SR13668 in dogs after i.v. and oral gavage dosing
# Format: in vivo, beagle dogs
# CONDITION: male, beagle, dog, whole blood, iv, 4.68 mg/kg, dogs, whole blood; 93.6 mg/m^2 (4.68 mg/kg) iv single dose, DMSO:PEG300 15:85 v/v; fed
MEASURE: Tmax

Return reported Tmax. Input compound: CCOC(=O)c1ccc2[nH]c3c(OC)c4[nH]c5ccc(C(=O)OCC)cc5c4cc3c2c1 [SR13668]
15 min

* * *

# TEST_SUMMARY: Solubility of SR13668 in various solvents
# Assay type: physicochemical
# CONDITION: organic solvent or mixture, thermodynamic from solid; Acetone; RT; HPLC
# Description: The other three systems are similar to the Solutol solutions, but the Solutol is the best candidate having the lowest freezing point (see Table 10) and a high SR13668 solubility (see Table 11). […] Vit E TPGS is water soluble natural-source vitamin E d-alpha tocopheryl polyethyleneglycol succinate, 387 IU/g. Myrj is Polyethylene Glycol (50) Monostearate.
MEASURE: solubility

# return recorded solubility for entry CCOC(=O)c1ccc2[nH]c3c(OC)c4[nH]c5ccc(C(=O)OCC)cc5c4cc3c2c1 [SR13668]
950 µg/mL

* * *

# TEST_SUMMARY: Solubility of SR13668 in various solvents
# Assay type: physicochemical
# CONDITION: organic solvent or mixture, thermodynamic from solid; PEG-400; RT; UV
MEASURE: solubility (µg/mL)
Please give a number only; it is taken to be in µg/mL.

Check the records and state solubility for CCOC(=O)c1ccc2[nH]c3c(OC)c4[nH]c5ccc(C(=O)OCC)cc5c4cc3c2c1
880

* * *

# TEST_SUMMARY: Pharmacokinetics of SR13668 in dogs after i.v. and oral gavage dosing
# Assay type: in vivo, beagle dogs
# CONDITION: male, beagle, dog, plasma, po, 4.68 mg/kg, dogs, plasma; 93.6 mg/m^2 (4.68 mg/kg) oral gavage, Solutol, seventh daily dose; fasted; read-out: CL/F (converted)
MEASURE: CL/F (mL/min/kg)
Number in mL/min/kg, nothing else.

Supply CL/F value. Item: CCOC(=O)c1ccc2[nH]c3c(OC)c4[nH]c5ccc(C(=O)OCC)cc5c4cc3c2c1
76.3

* * *

# TEST_SUMMARY: Pharmacokinetics of SR13668 in monkeys after i.v. and oral gavage dosing
# Type: in vivo, cynomolgus monkeys (macaca fasicularis)
# CONDITION: male, cynomolgus monkey, whole blood, po, 7.02 mg/kg, whole blood, 84.2 mg/m^2 (7.02 mg/kg) oral gavage, Solutol, seventh daily dose, fed, read-out: VZ/F
MEASURE: Vd/F
Field note: include the unit after the figure.

Look up and report measured Vd/F for this entry: CCOC(=O)c1ccc2[nH]c3c(OC)c4[nH]c5ccc(C(=O)OCC)cc5c4cc3c2c1 [SR13668]
31.6 L/kg

* * *

# TEST_SUMMARY: Pharmacokinetics of SR13668 in dogs after i.v. and oral gavage dosing
# Format: in vivo, beagle dogs
# CONDITION: male, beagle, dog, whole blood, po, 4.68 mg/kg, dogs; 93.6 mg/m^2 (4.68 mg/kg) oral gavage, Solutol, seventh daily dose; fed
MEASURE: Cmax
Remember to follow the number with its unit.

Return Cmax (reported value) for this molecule: CCOC(=O)c1ccc2[nH]c3c(OC)c4[nH]c5ccc(C(=O)OCC)cc5c4cc3c2c1
575 ng/mL

* * *

# TEST_SUMMARY: Solubility of SR13668 in various solvents
# Format: physicochemical
# CONDITION: organic solvent or mixture, thermodynamic from solid; Chemophore EL; RT; HPLC
# From the text: The other three systems are similar to the Solutol solutions, but the Solutol is the best candidate having the lowest freezing point (see Table 10) and a high SR13668 solubility (see Table 11). […] Vit E TPGS is water soluble natural-source vitamin E d-alpha tocopheryl polyethyleneglycol succinate, 387 IU/g. Myrj is Polyethylene Glycol (50) Monostearate.
MEASURE: solubility (µg/mL)
Express your answer in µg/mL, writing the number without its unit.

Give reported solubility value for CCOC(=O)c1ccc2[nH]c3c(OC)c4[nH]c5ccc(C(=O)OCC)cc5c4cc3c2c1
264

* * *

# TEST_SUMMARY: Pharmacokinetics of SR13668 in dogs after i.v. and oral gavage dosing
# Format: in vivo, beagle dogs
# CONDITION: male, beagle, dog, plasma, po, 4.68 mg/kg, dogs; 93.6 mg/m^2 (4.68 mg/kg) oral gavage, Solutol, seventh daily dose; fed
MEASURE: AUC(0-inf) (ng·h/mL)
Your answer should be a plain number; it is taken to be in ng·h/mL.

Recall and state the measured AUC(0-inf) for CCOC(=O)c1ccc2[nH]c3c(OC)c4[nH]c5ccc(C(=O)OCC)cc5c4cc3c2c1 [SR13668] .
1240

* * *

# TEST_SUMMARY: Pharmacokinetics of SR13668 in dogs after i.v. and oral gavage dosing
# Format: in vivo, beagle dogs
# CONDITION: male, beagle, dog, whole blood, po, 4.68 mg/kg, dogs; 93.6 mg/m^2 (4.68 mg/kg) oral gavage, Solutol, seventh daily dose; fed
# Experimental: Four non-naïve male beagle dogs (approximately 3 years of age; Ridglan Farms Inc. Mt. Horeb, Wis.) and four non-naïve male cynomolgus monkeys [cynos (macaca fasicularis); approximately 7 to 8 years of age; Charles River Laboratories, Inc., Houston, Tex.] were used in this study. […] A freshly prepared SR13668 standard curve was analyzed along with samples on each day of analysis. […]
MEASURE: half-life (h)
Write the answer as a number in h, unit excluded.

Specify measured half-life for CCOC(=O)c1ccc2[nH]c3c(OC)c4[nH]c5ccc(C(=O)OCC)cc5c4cc3c2c1 [SR13668] .
5.9
